TESTED_TARGET: histones
ASSAY_INFO: AtheNA Multi-Lyte ANA, Ab at 6.25 ug/ml
VALUE_TYPE: AtheNA signal
Note: the reply should be a number with no unit written.

Entry Ab7961/293i (antibody, IgG1, V domains shown) VH: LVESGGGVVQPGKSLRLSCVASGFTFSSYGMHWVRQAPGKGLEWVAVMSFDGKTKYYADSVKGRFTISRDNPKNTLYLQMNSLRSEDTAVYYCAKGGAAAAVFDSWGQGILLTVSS VL: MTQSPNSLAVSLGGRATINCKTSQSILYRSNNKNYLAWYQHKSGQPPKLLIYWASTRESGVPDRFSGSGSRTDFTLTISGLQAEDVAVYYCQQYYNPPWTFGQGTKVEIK has what AtheNA signal?
62

Provenance of the data: patent US20190315842A1
